All values here come from ChEMBL document CHEMBL1152594.

test: Half life in Beagle dog at 0.3 mg/kg, iv and 1 mg/kg, po; conditions: in vivo
MEASURED_QUANTITY: half-life (h)
One number for each entry, in h.

Task item: I'd like to know its half-life. The compound in question is CCS(=O)(=O)c1ccc(Oc2cc3nc(-c4ccccn4)[nH]c3cc2CN2C(=O)CCC2=O)cc1
Reply: 6.4

###

Molecular target: UniProt P35557
Sequence (P35557 whole entry): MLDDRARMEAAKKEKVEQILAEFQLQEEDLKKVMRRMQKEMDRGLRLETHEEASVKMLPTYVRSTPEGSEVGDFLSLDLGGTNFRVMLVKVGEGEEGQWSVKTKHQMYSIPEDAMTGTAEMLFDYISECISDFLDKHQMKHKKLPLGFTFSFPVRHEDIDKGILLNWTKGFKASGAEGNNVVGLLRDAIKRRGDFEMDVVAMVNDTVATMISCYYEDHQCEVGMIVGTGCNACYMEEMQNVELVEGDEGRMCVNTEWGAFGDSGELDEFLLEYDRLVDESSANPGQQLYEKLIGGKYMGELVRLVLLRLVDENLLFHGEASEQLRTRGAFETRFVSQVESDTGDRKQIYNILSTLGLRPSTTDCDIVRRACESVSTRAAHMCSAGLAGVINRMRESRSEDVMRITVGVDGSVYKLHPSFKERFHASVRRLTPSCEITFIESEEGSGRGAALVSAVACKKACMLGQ
Experiment: Activation of human liver glucokinase expressed in Escherichia coli at 2.5 mM glucose concentration by glucose-6-phosphate coupled continuous spectrophotometric assay
Each record is given YES if its reported EC50 is strictly below 300 nM. Records at or above 300 nM are given NO.

structure_smiles_string=CCS(=O)(=O)c1ccc(Oc2cc3nc(-c4ccccn4)[nH]c3cc2CN2CCOC2=O)cc1 classification=YES
structure_smiles_string=CCS(=O)(=O)c1ccc(Oc2cc3nc(-c4ccccn4)[nH]c3cc2CN2CCCC2=O)cc1 classification=NO
structure_smiles_string=CCS(=O)(=O)c1ccc(Oc2cc3nc(-c4ccccn4)[nH]c3cc2CN2CCCC2)cc1 classification=NO

Task item: EC50 under 300 nM? Item: CCS(=O)(=O)c1ccc(Oc2cc3nc(-c4ccccn4)[nH]c3cc2CN2C(=O)CCC2=O)cc1
Reply: YES

Task item: What about this compound? CCS(=O)(=O)c1ccc(Oc2cc3nc(-c4ccccn4)[nH]c3cc2CN2C(=O)CN(C)C2=O)cc1
Reply: YES

Task item: Please do the same for CCS(=O)(=O)c1ccc(Oc2cc3nc(-c4ccccn4)[nH]c3cc2Cn2ccnc2)cc1 as well.
Reply: NO

Task item: Now consider CCN(Cc1cc2nc(-c3ccccn3)[nH]c2cc1Oc1ccc(S(=O)(=O)CC)cc1)C(C)=O .
Reply: NO

Task item: Next up: CCS(=O)(=O)c1ccc(Oc2cc3nc(-c4ccccn4)[nH]c3cc2CN2CCNC2=O)cc1
Reply: NO

Task item: Same lookup for CCS(=O)(=O)c1ccc(Oc2cc3nc(-c4ccccn4)[nH]c3cc2CN2CCOCC2=O)cc1 , please.
Reply: YES

Task item: Then this compound: CCS(=O)(=O)c1ccc(Oc2cc3nc(-c4ccccn4)[nH]c3cc2CN2C(=O)COC2=O)cc1
Reply: YES

Task item: Quick one: CCS(=O)(=O)c1ccc(Oc2cc3[nH]c(-c4ccccn4)nc3cc2CCC(=O)N(C)C)cc1
Reply: NO

Task item: What do we get for CCS(=O)(=O)c1ccc(Oc2cc3nc(-c4ccccn4)[nH]c3cc2CNC(C)=O)cc1 ?
Reply: NO

Task item: Next: CCS(=O)(=O)c1ccc(Oc2cc3nc(-c4ccccn4)[nH]c3cc2CN2CCCS2(=O)=O)cc1
Reply: NO

Task item: Try CCS(=O)(=O)c1ccc(Oc2cc3nc(-c4ccccn4)[nH]c3cc2CN2CCN(C)C2=O)cc1 next.
Reply: NO

Task item: Consider next the compound CCS(=O)(=O)c1ccc(Oc2cc3nc(-c4ccccn4)[nH]c3cc2Cc2nnnn2C)cc1 in the same way.
Reply: NO
